Hi there, I'd appreciate the recorded In vitro Activity Compared to Native Peptide (%) vs. GIP for every entry that follows.
Target or test system: T1, human GIP receptor (human, UniProt P48546 22-466)
T1 sequence (looked up): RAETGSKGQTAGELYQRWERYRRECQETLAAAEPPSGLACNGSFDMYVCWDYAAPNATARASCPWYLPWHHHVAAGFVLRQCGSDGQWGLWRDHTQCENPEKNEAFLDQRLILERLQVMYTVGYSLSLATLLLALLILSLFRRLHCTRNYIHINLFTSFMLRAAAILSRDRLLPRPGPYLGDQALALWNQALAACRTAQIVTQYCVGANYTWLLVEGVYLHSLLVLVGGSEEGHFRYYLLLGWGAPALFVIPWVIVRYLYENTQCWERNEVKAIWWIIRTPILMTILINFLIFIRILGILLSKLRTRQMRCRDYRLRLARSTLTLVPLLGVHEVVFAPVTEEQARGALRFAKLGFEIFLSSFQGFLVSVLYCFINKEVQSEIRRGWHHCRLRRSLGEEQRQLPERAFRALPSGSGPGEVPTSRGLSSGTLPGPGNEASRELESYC
Test method notes: cell-based or functional assay
Positions of bridges follow the written chain, without caps; N, C: chain ends. Non-standard residues stand in square brackets, D forms with d. No end group written: not given here. *: point of attachment. Acetyl(2-(4-imidazolyl)) = O=C(Cc1c[nH]cn1)*; Aib = CC(C)(N)C(=O)O

Entry under test: [Acetyl(2-(4-imidazolyl))][Aib]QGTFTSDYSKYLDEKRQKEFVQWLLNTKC (bridge 16-20) [triple agonist of SEQ ID NO: 88] . Its In vitro Activity Compared to Native Peptide (%) vs. GIP was < 0.1%

Entry under test: H[Aib]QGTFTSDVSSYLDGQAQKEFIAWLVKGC [triple agonist of SEQ ID NO: 2] . Its In vitro Activity Compared to Native Peptide (%) vs. GIP was < 0.1%

Entry under test: [Acetyl(2-(4-imidazolyl))][Aib]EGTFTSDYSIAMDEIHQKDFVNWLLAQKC (bridge 16-20) [triple agonist of SEQ ID NO: 90] . Its In vitro Activity Compared to Native Peptide (%) vs. GIP was < 0.1%
